# measured.on: RLuc8 (Renilla reniformis, UniProt P27652, A143M/A55T/C124A/K136R/M185V/M253L/S130A/S287L)
# Sequence (P27652 whole entry A55T/C124A/S130A/K136R/A143M/M185V/M253L/S287L): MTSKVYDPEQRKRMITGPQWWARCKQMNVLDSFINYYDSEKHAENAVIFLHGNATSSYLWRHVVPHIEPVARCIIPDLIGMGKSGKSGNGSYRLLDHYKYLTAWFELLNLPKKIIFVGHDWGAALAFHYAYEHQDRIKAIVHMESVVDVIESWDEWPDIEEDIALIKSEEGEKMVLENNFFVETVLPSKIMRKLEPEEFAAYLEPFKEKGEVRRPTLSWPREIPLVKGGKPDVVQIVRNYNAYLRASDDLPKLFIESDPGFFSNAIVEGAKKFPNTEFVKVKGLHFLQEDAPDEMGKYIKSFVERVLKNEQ
# method.summary: biochemical
pKi: −log10 of the molar value.
measured.property: pKi

[[record]]
chemical_string = "O=c1n(Cc2ccc(O)cc2)nc2c(Cc3ccccc3)nc(-c3ccc(O)cc3)cn12"
measured_on = "RLuc8 (Renilla reniformis, UniProt P27652, A143M/A55T/C124A/K136R/M185V/M253L/S130A/S287L)"
test_result = 4.79


###

# measured.on: AncFT
# method.summary: anaerobic fluorescence titration
# Set-up: species or system synthetic construct
# test.context: 100 mM potassium phosphate pH 7.5, 30 °C
pKd: −log10 of the molar value.
measured.property: pKd

[[record]]
chemical_string = "Oc1ccc(Cc2nc3c(Cc4ccccc4)nc(-c4ccc(O)cc4)cn3c2O)cc1"
test_result = 4.92

